meta.source: patent US20070078111A1

Target System: LPA2 receptor (Homo sapiens, UniProt Q9HBW0)
Sequence (Q9HBW0 whole entry): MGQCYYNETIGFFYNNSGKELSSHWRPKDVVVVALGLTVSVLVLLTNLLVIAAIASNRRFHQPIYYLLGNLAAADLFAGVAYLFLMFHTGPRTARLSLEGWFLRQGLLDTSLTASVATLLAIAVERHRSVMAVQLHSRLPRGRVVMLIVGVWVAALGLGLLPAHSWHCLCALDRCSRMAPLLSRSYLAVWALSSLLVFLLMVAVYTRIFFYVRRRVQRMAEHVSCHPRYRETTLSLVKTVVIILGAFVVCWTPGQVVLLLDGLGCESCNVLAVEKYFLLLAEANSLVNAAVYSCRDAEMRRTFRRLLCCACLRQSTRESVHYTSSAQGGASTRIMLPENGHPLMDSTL
Experiment Notes: LPA2 receptor agonist activity (EC50, Emax)
Assay type: cell-based
Stated Conditions: Table 1; value in parentheses
Parameter: LPA2 (Emax)
// no unit, no text: just the number

Some compounds with recorded LPA2 (Emax):
Compound: CC/C=C\CCCCCCCCOP(=O)(O)O [Phosphoric acid monododec-9-enyl ester]
Measured Number: 78
//
Compound: CCCC/C=C\CCCCCCCCOP(=O)(O)O
Measured Number: 58
//
Compound: CCCCCCCC/C=C\CCCCCCCCOP(O)(O)=S [drawing 12]
Measured Number: 175
//
Compound: CCCCCCCC(=O)OC[C@@H](COP(O)(O)=S)OC(=O)CCCCCCC
Measured Number: 17
//
Compound: C=CCCCCCCCCOP(=O)(O)O [Phosphoric acid monodec-9-enyl ester]
Measured Number: 100

IN: Entry CCCCCCCCCCOP(O)(O)=S [Thiophosphoric acid O- decyl ester] : reported LPA2 (Emax) = ?
OUT: 100

IN: What does the data say about its LPA2 (Emax)? Entry: CCCCCCCCCCCCOP(O)(O)=S [Thiophosphoric acid O- dodecyl ester]
OUT: 100

IN: Returns the measured LPA2 (Emax) for the input compound. Input: CCCCCCCCCCCCOP(=O)(O)O [Phosphoric acid monododecyl ester]
OUT: 50

IN: Form field: reported LPA2 (Emax) of CCCCCCCCCCCCCCOP(O)(O)=S [Thiophosphoric acid O- tetradecyl ester]
OUT: 100

====

Target System: LPA2 receptor (Homo sapiens)
Experiment Notes: LPA2 receptor agonist activity (EC50, Emax)
Assay type: cell-based
Stated Conditions: Table 1
Parameter: pEC50
Would you please state pEC50, meaning minus log10 of the concentration in mol/L, as a bare number?

Structure String: CC/C=C\CCCCCCCCCCOP(=O)(O)O
Target System: LPA2 receptor (Homo sapiens)
pEC50: 5.39

Structure String: CCCCCCCCCCCCOP(O)(O)=S
Target System: LPA2 receptor (Homo sapiens)
pEC50: 6.00

Structure String: CCCC/C=C\CCCCCCCCOP(=O)(O)O
Target System: LPA2 receptor (Homo sapiens)
pEC50: 6.40

Structure String: CCCC/C=C\CCCCCCCCOP(O)(O)=S
Target System: LPA2 receptor (Homo sapiens)
pEC50: 6.32

Structure String: CCCCCCCCOC[C@H](COP(O)(O)=S)OCCCCCCCC
Target System: LPA2 receptor (Homo sapiens)
pEC50: 5.24

IN: Would you mind telling me what pEC50 value was observed for C=CCCCCCCCCOP(=O)(O)O ?
OUT: 5.42

IN: So what's the measured pEC50 for this one? CCCCCCCCCCOP(O)(O)=S
OUT: 5.34

IN: Bench note: what pEC50 did CCCCCCCCCCCCCCOP(O)(O)=S show?
OUT: 5.60

====

Target System: LPA2 receptor (Homo sapiens, UniProt Q9HBW0)
Experiment Notes: LPA2 receptor agonist activity (EC50, Emax)
Format: cell-based
Stated Conditions: Table 1
Parameter: pEC50
// returns pEC50 (minus log10 of molar concentration), number only

Compound: CC/C=C\CCCCCCCCOP(O)(O)=S [drawing 10]
pEC50: 6.17

Compound: CCCCCCCCCCOP(=O)(O)O
pEC50: 5.74

Compound: CCCCCCCC/C=C\CCCCCCCCOP(O)(O)=S [drawing 12]
pEC50: 6.61

IN: May I ask what pEC50 has been recorded for CC/C=C\CCCCCCCCOP(=O)(O)O ?
OUT: 6.14

IN: If you can, please state the reported pEC50 value of CCCCCCCCCCCCOP(=O)(O)O .
OUT: 5.51
